test: Therapeutic index, ratio of CC50 for human 293T cells to EC50 for HIV1; type: cell-based; conditions: read-out: Ratio CC50/EC50
# note: exactly 1000 is not below, so it is false; use true for selectivity ratio strictly under it

Please determine if Cn1c(=O)c(C(=O)NCc2ccc(F)cc2)c(O)c2ncc(Cc3ccc(F)cc3)cc21 is below 1000 in terms of selectivity ratio.
false

Please determine if O=C(NCc1ccc(F)cc1)c1c(O)c2ncc(Cc3ccc(F)cc3)cc2[nH]c1=O is below 1000 in terms of selectivity ratio.
false

Please determine if CCCn1c(=O)c(C(=O)NCc2ccc(F)cc2)c(O)c2ncc(Cc3ccccc3)cc21 is below 1000 in terms of selectivity ratio.
true

Please determine if O=C(NCc1ccc(F)cc1)c1c(O)c2ncccc2n(C2CCCC2)c1=O is below 1000 in terms of selectivity ratio.
true

Please determine if CS(=O)(=O)c1ccc(Cn2c(=O)c(C(=O)NCc3ccc(F)cc3)c(O)c3ncc(Cc4ccccc4)cc32)cc1 is below 1000 in terms of selectivity ratio.
false

Please determine if O=C(NCc1ccc(F)cc1)c1c(O)c2ncc(Cc3ccc(F)cc3)cc2n(CCN2CCCC2=O)c1=O is below 1000 in terms of selectivity ratio.
false

Please determine if O=C(NCc1ccc(F)cc1Cl)c1c(O)c2ncc(Cc3ccccc3)cc2[nH]c1=O is below 1000 in terms of selectivity ratio.
true

Please determine if COc1cccc(CNC(=O)c2c(O)c3ncc(Cc4ccc(F)cc4)cc3[nH]c2=O)c1 is below 1000 in terms of selectivity ratio.
false

Please determine if CC(NC(=O)c1c(O)c2ncc(Cc3ccccc3)cc2[nH]c1=O)c1ccccc1 (centres undefined) is below 1000 in terms of selectivity ratio.
true

Where these numbers come from: ChEMBL document CHEMBL1914387
